tested on: BA/F3 (insSVD) cells; assay: Ba/F3-EGFR-insSVD cell survival assay (Cell Titer-Glo); format: cell-based; conditions: Mus musculus, BaF3, 48 h, Table 3a, cell survival, Cell Titer-Glo, with 10 ng/ml EGF, without IL-3
Each entry below carries its reported log10 of IC50.
Log scale reminder: IC50 in nM, then log10 taken.

structure_smiles_string=C=CC(=O)N1Cc2c(-c3ccncc3)c(-c3ccc(Cl)cc3F)nn2C[C@@H]1C measured_property="log10 of IC50" reported_value=1.06
structure_smiles_string=CN1CCN(C/C=C/C(=O)N2CCn3nc(-c4ccc(F)cc4)c(-c4ccncc4)c3C2)CC1 measured_property="log10 of IC50" reported_value=2.87
structure_smiles_string=C=CC(=O)N1CCn2nc(-c3ccc(Cl)cc3F)c(-c3ccnc4[nH]ccc34)c2C1 measured_property="log10 of IC50" reported_value=1.51
structure_smiles_string=C=CC(=O)N1CCn2nc(-c3ccc(C)cc3O)c(-c3ccncc3)c2C1 measured_property="log10 of IC50" reported_value=1.74
structure_smiles_string=O=C(/C=C/CN1CCCC1)N1CCn2nc(-c3ccc(F)cc3)c(-c3ccncc3)c2C1 measured_property="log10 of IC50" reported_value=1.80
structure_smiles_string=C=CC(=O)N1CCn2nc(-c3cccc(OC)c3)c(-c3ccncc3)c2C1 measured_property="log10 of IC50" reported_value=1.91
structure_smiles_string=CN1CCN(C/C=C/C(=O)N2CCn3nc(-c4ccc(Cl)cc4)c(-c4ccncc4)c3C2)CC1 measured_property="log10 of IC50" reported_value=2.19

Q. # return recorded log10 of IC50 for entry C=CC(=O)N1CCn2nc(-c3ccc(C(F)(F)F)cc3F)c(-c3ccnc4[nH]cc(C)c34)c2C1
A. 2.20

* * *

Each entry below carries its reported IC50.
biological target: mutEGFR (D770_N771insNPG, T790) (Homo sapiens, UniProt P00533, INS770NPG/T790M); construct: exact insNPG construct not described; in-house EGFR proteins were N-terminal GST fusions from baculovirus/insect cells (borders R669-A1210 given only for WT, insSVD, insASV); assay: mutEGFR (D770_N771insNPG, T790) kinase assay; format: biochemical; conditions: Table 2a, D770_N771insNPG
Sequence (P00533 with tags, fused parts or gaps INS770NPG/T790M limits assumed): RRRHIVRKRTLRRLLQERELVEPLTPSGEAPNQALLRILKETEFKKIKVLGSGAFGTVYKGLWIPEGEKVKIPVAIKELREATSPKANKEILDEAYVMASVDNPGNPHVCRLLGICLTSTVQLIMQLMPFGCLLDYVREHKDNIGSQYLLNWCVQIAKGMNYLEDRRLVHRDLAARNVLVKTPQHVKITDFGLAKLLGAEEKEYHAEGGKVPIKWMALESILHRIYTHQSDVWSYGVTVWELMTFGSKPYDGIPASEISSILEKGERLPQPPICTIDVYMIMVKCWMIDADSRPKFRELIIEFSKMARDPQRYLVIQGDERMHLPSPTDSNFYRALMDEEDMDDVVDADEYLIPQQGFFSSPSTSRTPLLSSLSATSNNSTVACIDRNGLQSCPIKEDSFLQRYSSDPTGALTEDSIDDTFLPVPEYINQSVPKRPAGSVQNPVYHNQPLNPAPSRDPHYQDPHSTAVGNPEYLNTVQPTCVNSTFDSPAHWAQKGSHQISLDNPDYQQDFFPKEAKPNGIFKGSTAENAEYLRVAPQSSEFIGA
// units = nM; emit number, no label

Worked set:
compound="O=C(/C=C/Cl)N1CCn2nc(-c3ccc(Cl)cc3F)c(-c3ccncc3)c2C1 [Example 75]" unit_annotation=nM reported_value=0.995
compound="Cc1c[nH]c2nccc(-c3c(-c4ccc(Cl)cc4F)nn4c3CN(C(=O)/C=C/CN(C)C)CC4)c12 [Example 57]" unit_annotation=nM reported_value=256
compound="CN(C)C/C=C/C(=O)N1CCn2nc(-c3ccc4cc[nH]c4c3)c(-c3ccncc3)c2C1 [Example 200]" unit_annotation=nM reported_value=0.317
compound="C=CC(=O)N1CCn2nc(-c3ccc(F)cc3)c(-c3ccnc4[nH]cc(C)c34)c2C1 [Example 173]" unit_annotation=nM reported_value=25.5
compound="CN1CC=C(C(=O)N2CCn3nc(-c4ccc(Cl)cc4F)c(-c4ccncc4)c3C2)C1 [Example 76]" unit_annotation=nM reported_value=77.3

Q. # return recorded IC50 for entry C=CC(=O)N1Cc2c(-c3ccncc3)c(-c3ccc(Cl)cc3)nn2C[C@@H]1C [Example 122]
A. 0.803

Q. # return recorded IC50 for entry C=CC(=O)N1CCn2nc(-c3ccc(F)c4ccccc34)c(-c3ccncc3)c2C1 [Example 106]
A. 0.546

Q. # return recorded IC50 for entry C=CC(=O)N1CCn2nc(-c3ccc(OC)c(F)c3)c(-c3ccncc3)c2C1 [Example 42]
A. 6.31
